Protocol Notes: BTB spectrophotometric assay of kinetic constants, substrate phenylmalonate
Type: biochemical
Cond: substrate 2-phenylmalonic acid (1); His6-tagged enzyme; BTB method
Parameter: kcat (s⁻¹)
Enter your answer as a number in s⁻¹; do not include the unit.

Query: Please indicate kcat recorded for protein NP_888076.1 from Bordetella bronchiseptica RB50: Putative decarboxylase [Bordetella bronchiseptica RB50], SEQ ID NO: 8 (protein, listed as Bordetella bronchiseptica) MPTPTQMKTTARYRPYAWRAKVGLIVPSTNTINEPEFYRLAPDGVTIHTGRAINAGPATQENYDRMARGVLEAADLIKTAEVDVVAYGCTSGSIVCSLDELCDGMSERVGVPAIATAGAVVAALRALGVRRVAVGTPYIDFVNQREREFLEQYGFEVVSIEGMDLGHTQEERRDIGRVPPQSTFQLARDIDRPQAEAIFLSCTNLATLDMIERIENELGKPVVTSNQATFWACLRLLGLSCAIPGYGRLLTDCLAPITRASYALALEHHHHHH
Response: 12.4

// data source = patent US8951750B2
